These data points were gathered from patent US20260258127A1.

- assaySystem: T1, CD3 (antigen of the anti-CD3 antibody, coated in the ELISA of Examples 1-3) (Homo sapiens (Human), UniProt P07766 23-126)
- T1 construct: also called antibody antigen
- T1 sequence (P07766 23-126 limits assumed, form in doubt): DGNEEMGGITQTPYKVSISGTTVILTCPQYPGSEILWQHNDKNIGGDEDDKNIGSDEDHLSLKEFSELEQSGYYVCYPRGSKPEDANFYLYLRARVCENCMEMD
- protocolDetails: ELISA, coated antigen, anti-human IgG-HRP; reference wild-type antibody
// values below are reported Binding strength of mutants (EC50 mutant/EC50 wild-type)
Lab note: write values as number then unit, every time.

- binder: "anti-CD3 antibody mutant VL-N96C (antibody, V domains shown, Cys point mutant of the humanized anti-CD3 antibody; also called VL-96) VH: EVQLVESGGGLVQPGGSLRLSCAASGFTFSTYAMNWVRQAPGKGLEWVGRIRSKYNNYATYYADSVKDRFTISRDDSKNSLYLQMNSLKTEDTAVYYCARHGNFGNSYVSWFAYWGQGTLVTVSS VL: QTVVTQEPSLTVSPGGTVTLTCRSSTGAVTTSNYANWVQQKPGQAPRGLIGGTNKRAPGVPARFSGSLLGDKAALTLLGAQPEDEAEYFCALWYSCLWVFGGGTKLTVL"
  endpointValue: "1 fold"

Now for the binder whose Binding strength of mutants (EC50 mutant/EC50 wild-type) we want.
Inquiry: Assign Binding strength of mutants (EC50 mutant/EC50 wild-type) to the following record: anti-CD3 antibody mutant VL-W93C (antibody, V domains shown, Cys point mutant of the humanized anti-CD3 antibody; also called VL-93) VH: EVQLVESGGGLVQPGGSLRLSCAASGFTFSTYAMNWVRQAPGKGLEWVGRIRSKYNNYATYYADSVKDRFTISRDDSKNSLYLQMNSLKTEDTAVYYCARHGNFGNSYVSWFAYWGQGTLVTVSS VL: QTVVTQEPSLTVSPGGTVTLTCRSSTGAVTTSNYANWVQQKPGQAPRGLIGGTNKRAPGVPARFSGSLLGDKAALTLLGAQPEDEAEYFCALCYSNLWVFGGGTKLTVL
Reply text: 1.8 fold
